experimental_system: hNAMPT protein (Homo sapiens (Human))
assay_comment: NAMPT enzyme assay (TR-FRET/HTRF, BodiPY ligand, anti 6His-Tb)
Type: binding
experimental_context: NAMPT IC50 range class; read-out: IC50
Description: As discussed above, the invention provides compounds that are useful as inhibitors of the enzyme NAMPT. The NAMPT inhibition of a compound of the invention can be measured using a variety of methods known in the art. […] The TR-FRET signal can be measured using a high throughput microplate reader (e.g., Pherastar). […] The percent inhibition value at a single concentration of compound of the invention can be calculated relative to a control treated sample. […]
pIC50: −log10 of the molar value.
pIC50 for assorted compounds
measured_parameter: pIC50

>>> assay_value("COc1nn(C)c2c1CN(C(=O)c1ccc3nc(-c4ccc(F)cc4)c(-c4ccc(F)cc4)nc3c1)CC2")
"5.00 to 5.70"
>>> assay_value("CN1CC=C(c2nc3cc(C(=O)NCCCn4ccnc4)ccc3nc2-c2ccccc2)CC1")
"5.00 to 5.70"
>>> assay_value("O=C(NCCCn1ccnc1)c1ccc2nc(N3CCC(C4CCNCC4)CC3)c(-c3ccccc3)nc2c1")
"> 7.00"
>>> assay_value("CC(C)(C)OC(=O)NCc1cccc(-c2nc3ccc(C(=O)NCCCn4ccnc4)cc3nc2-c2ccccc2)c1")
"6.00 to 6.30"
>>> assay_value("Cn1ccc(-c2nc3ccc(C(=O)NCCCn4ccnc4)cc3nc2-c2ccccc2)n1")
"5.70 to 6.00"
>>> assay_value("O=C(NCCCc1ncc[nH]1)c1ccc2nc(Cl)c(-c3ccc(F)cc3)nc2c1")
"6.30 to 7.00"
>>> assay_value("O=C(NCCc1ccc2[nH]cnc2c1)c1ccc2nc(-c3ccc(F)cc3)c(-c3ccc(F)cc3)nc2c1")
"5.00 to 5.70"

====

experimental_system: hNAMPT protein (Homo sapiens (Human), UniProt P43490)
Sequence (P43490 whole entry): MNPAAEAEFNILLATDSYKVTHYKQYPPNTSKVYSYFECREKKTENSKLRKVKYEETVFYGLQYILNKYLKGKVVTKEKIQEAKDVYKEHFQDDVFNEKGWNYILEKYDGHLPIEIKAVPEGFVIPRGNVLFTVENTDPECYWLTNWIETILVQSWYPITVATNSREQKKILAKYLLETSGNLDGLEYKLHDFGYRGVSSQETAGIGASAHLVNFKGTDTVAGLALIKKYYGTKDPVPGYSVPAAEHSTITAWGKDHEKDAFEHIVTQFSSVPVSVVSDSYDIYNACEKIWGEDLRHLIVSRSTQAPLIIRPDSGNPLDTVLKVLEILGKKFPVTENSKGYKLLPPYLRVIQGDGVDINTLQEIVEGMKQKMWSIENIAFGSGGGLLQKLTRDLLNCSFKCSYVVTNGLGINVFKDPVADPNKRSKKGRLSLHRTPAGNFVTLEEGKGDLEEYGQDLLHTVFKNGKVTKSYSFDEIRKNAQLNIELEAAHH
assay_comment: NAMPT enzyme assay (TR-FRET/HTRF, BodiPY ligand, anti 6His-Tb)
Type: binding
experimental_context: NAMPT IC50 range class; read-out: IC50
measured_parameter: IC50

>>> assay_value("O=C(c1ccc2nc(-c3ccc(F)cc3)c(-c3ccc(F)cc3)nc2c1)N1CCOC(c2cccnc2)C1 (stereo not shown) [Compound I-155]")
"2000 to 10000 nM"
>>> assay_value("COc1nc2ccc(C(=O)NCCCc3ncc[nH]3)cc2nc1-c1ccc(Cl)cc1 [Compound I-109]")
"< 100 nM"
>>> assay_value("O=C(NCCCn1ccnc1)c1ccc2nc(-c3ccccc3)c(N3CCOCC3)nc2c1 [Compound I-144]")
"1000 to 2000 nM"
>>> assay_value("O=C(NCCCc1ncc[nH]1)c1ccc2nc(N3CCOCC3)c(-c3ccc(Cl)cc3)nc2c1 [Compound I-104]")
"< 100 nM"

====

experimental_system: hNAMPT protein (Homo sapiens (Human))
assay_comment: NAMPT enzyme assay (TR-FRET/HTRF, BodiPY ligand, anti 6His-Tb)
Format: binding
experimental_context: compound concentration 1 μM; read-out: Percent Inhibition
measured_parameter: inhibition at 1 µM (%)

>>> assay_value("O=C(NCCCc1ncc[nH]1)c1ccc2nc(OCc3cn[nH]c3)c(-c3ccc(F)cc3)nc2c1")
97
>>> assay_value("CC(C)(C)OC(=O)N1CCC(C2CCN(c3nc4ccc(C(=O)NCCn5ccnc5)cc4nc3-c3ccccc3)CC2)CC1")
25
>>> assay_value("O=C(c1ccc2nc(-c3ccc(F)cc3)c(-c3ccc(F)cc3)nc2c1)N1CCC(c2ccncc2)CC1")
19
>>> assay_value("O=C(NCCCn1ccnc1)c1ccc2nc(N3CC4CC3CO4)c(-c3ccccc3)nc2c1 (stereo not shown)")
65

====

Measured pIC50 values are reported for all entries that follow.
experimental_system: hNAMPT protein (Homo sapiens (Human), UniProt P43490)
assay_comment: NAMPT enzyme assay (TR-FRET/HTRF, BodiPY ligand, anti 6His-Tb)
Format: binding
experimental_context: NAMPT IC50 range class; read-out: IC50
pIC50: −log10 of the molar value.
measured_parameter: pIC50

>>> assay_value("O=C(c1ccc2nc(-c3ccc(F)cc3)c(-c3ccc(F)cc3)nc2c1)N1CC(n2cccn2)C1")
"5.70 to 6.00"
>>> assay_value("COc1cccc(-c2nc3cc(C(=O)NCCCc4ncc[nH]4)ccc3nc2N2CCC(N3CCOCC3)CC2)c1")
"> 7.00"
>>> assay_value("O=C(NCCCn1ccnc1)c1ccc2nc(N3CCC(N4CCCC4=O)CC3)c(-c3ccccc3)nc2c1")
"6.30 to 7.00"
>>> assay_value("O=C(NCCCc1ncc[nH]1)c1ccc2nc(N3CCC(N4CCOCC4)CC3)c(-c3cccs3)nc2c1")
"> 7.00"
>>> assay_value("O=C(NCCCn1ccnc1)c1ccc2nc(-c3cccnc3)c(-c3ccccc3)nc2c1")
"6.00 to 6.30"
>>> assay_value("COc1cccc(-c2nc3cc(C(=O)NCCCn4ccnc4)ccc3nc2N2CCOCC2)c1")
"> 7.00"
>>> assay_value("O=C(NCCCn1ccnc1)c1ccc2nc(-c3ccc4cc[nH]c4c3)c(-c3ccccc3)nc2c1")
"6.00 to 6.30"
>>> assay_value("CCOC(=O)CCc1ccc(-c2nc3cc(C(=O)NCCCn4ccnc4)ccc3nc2-c2ccccc2)cc1")
"5.00 to 5.70"
>>> assay_value("CC(=O)Nc1ccc(-c2nc3ccc(C(=O)NCCCn4ccnc4)cc3nc2-c2ccccc2)cc1")
"6.30 to 7.00"
>>> assay_value("O=C(NCCc1c[nH]c2ccccc12)c1ccc2nc(-c3ccc(F)cc3)c(-c3ccc(F)cc3)nc2c1")
"5.00 to 5.70"
>>> assay_value("O=C(NCCCn1ccnc1)c1ccc2nc(-c3ccccc3)c(N3CCCC3)nc2c1")
"5.70 to 6.00"
>>> assay_value("Cn1cnc2cc(-c3nc4ccc(C(=O)NCCCn5ccnc5)cc4nc3-c3ccccc3)ccc21")
"> 7.00"
>>> assay_value("Cn1ccnc1CCCNC(=O)c1ccc2nc(-c3ccc(F)cc3)c(-c3ccc(F)cc3)nc2c1")
"> 7.00"
>>> assay_value("O=C(NCCCn1ccnc1)c1ccc2nc(-c3ccc4c(c3)CCO4)c(-c3ccccc3)nc2c1")
"6.30 to 7.00"
>>> assay_value("O=C(NCCCn1ccnc1)c1ccc2nc(N3CC4CC4C3)c(-c3ccccc3)nc2c1 (stereo not drawn)")
"6.30 to 7.00"
>>> assay_value("N#Cc1ccc(-c2nc3cc(C(=O)NCCCc4ncc[nH]4)ccc3nc2-c2ccc(F)cc2)s1")
"6.30 to 7.00"
>>> assay_value("CC(C)Oc1nc2ccc(C(=O)NCCCc3nnc[nH]3)cc2nc1-c1ccc(F)cc1")
"6.00 to 6.30"
>>> assay_value("Cn1cnc2cc(-c3nc4cc(C(=O)NCCCn5ccnc5)ccc4nc3-c3ccccc3)ccc21")
"5.00 to 5.70"
>>> assay_value("CS(=O)(=O)c1cccc(-c2nc3cc(C(=O)NCCCc4ncc[nH]4)ccc3nc2-c2ccc(F)cc2)c1")
"6.30 to 7.00"
>>> assay_value("O=C(NCCCc1ncc[nH]1)c1ccc2nc(N3CCCCC3)c(-c3ccc(Cl)cc3)nc2c1")
"> 7.00"
>>> assay_value("O=C(NCCCn1ccnc1)c1ccc2nc(N3CCC(N4CCOCC4)CC3)c(-c3ccccc3)nc2c1")
"> 7.00"
>>> assay_value("Cc1c(F)cc(-c2nc3cc(C(=O)NCCCc4ncc[nH]4)ccc3nc2-c2ccc(F)cc2)cc1F")
"6.00 to 6.30"
>>> assay_value("O=C(NCCCc1ncc[nH]1)c1ccc2nc(-c3ccc(F)cc3)c(-c3cc(F)c(F)cc3F)nc2c1")
"6.30 to 7.00"
>>> assay_value("O=C(NCCCc1cccnc1)c1ccc2nc(N3CCC(O)CC3)c(-c3ccc(F)cc3)nc2c1")
"> 7.00"
>>> assay_value("O=C(NCCCc1ncc[nH]1)c1ccc2nc(OC3CCCCC3)c(-c3ccc(Cl)cc3)nc2c1")
"> 7.00"
>>> assay_value("O=C(c1ccc2nc(-c3ccc(F)cc3)c(-c3ccc(F)cc3)nc2c1)N1CCn2nncc2C1")
"5.00 to 5.70"
>>> assay_value("O=C(NCCCn1ccnc1)c1ccc2nc(-c3ccccc3Cl)c(-c3ccccc3)nc2c1")
"6.30 to 7.00"
>>> assay_value("O=C(NCCCn1ccnc1)c1ccc2nc(N3CCN4C(=O)CCC4C3)c(-c3ccccc3)nc2c1 (stereo not drawn)")
"6.30 to 7.00"
>>> assay_value("CC(=O)Nc1ccccc1-c1nc2cc(C(=O)NCCCn3ccnc3)ccc2nc1-c1ccccc1")
"5.00 to 5.70"
>>> assay_value("O=C(NCCOc1cccnc1)c1ccc2nc(Cl)c(-c3ccc(F)cc3)nc2c1")
"> 7.00"

====

experimental_system: hNAMPT protein (Homo sapiens (Human), UniProt P43490)
assay_comment: NAMPT enzyme assay (TR-FRET/HTRF, BodiPY ligand, anti 6His-Tb)
Type: binding
experimental_context: NAMPT inhibition, IC50 range class; read-out: IC50
pIC50: −log10 of the molar value.
measured_parameter: pIC50

>>> assay_value("Nc1ccc(CCCNC(=O)c2ccc3nc(N4CCCCC4)c(-c4ccc(F)cc4)nc3c2)cn1")
"6.30 to 7.00"
>>> assay_value("Cc1ccc(C#N)cc1-c1nc2cc(C(=O)NCCCc3ncc[nH]3)ccc2nc1-c1ccc(F)cc1")
"> 7.00"
>>> assay_value("COc1cc(-c2nc3cc(C(=O)NCc4ccc5nccn5c4)ccc3nc2OC(C)C)ccc1F")
"> 7.00"
>>> assay_value("O=C(NCCCc1ncc[nH]1)c1ccc2nc(OCc3cccc(Cl)c3)c(-c3ccc(F)cc3)nc2c1")
"> 7.00"
